assay: Plasma PK and tissue distribution after oral dosing of prodrug EXAMPLE 7 (5 mg/kg)
Type: in vivo
conditionSet: male, Wistar Han, rat, lymph node/plasma, po, 5 mg/kg, PO 5 mg/kg EXAMPLE 7 (prodrug), 4 hr, analyte as labelled, read-out: Lymph node to plasma ratio Mean

molecule: CC(C)CN(c1ccc([C@H](C)CC(=O)O)cc1Nc1cnc(Cl)cn1)C1CCOCC1 [intermediate C4]
Kp at 4 h: 1.66

----------
assay: Plasma PK and tissue distribution after oral dosing of INTERMEDIATE C4 (3 mg/kg)
Type: in vivo
conditionSet: male, Wistar Han, rat, spleen, po, 3 mg/kg, PO 3 mg/kg INTERMEDIATE C4, male Wistar Han rat, 1 hr; read-out: spleen Concentration Mean

compound: CC(C)CN(c1ccc([C@H](C)CC(=O)O)cc1Nc1cnc(Cl)cn1)C1CCOCC1 [intermediate C4]
concentration at 1 h, ng/g: 63.9

----------
assay: Plasma PK and tissue distribution after oral dosing of prodrug EXAMPLE 7 (5 mg/kg)
Assay type: in vivo
conditionSet: male, Wistar Han, rat, spleen, po, 5 mg/kg, PO 5 mg/kg EXAMPLE 7 (prodrug), 1 hr, analyte as labelled, read-out: spleen Concentration Mean

molecule: CC(C)CN(c1ccc([C@H](C)CC(=O)O)cc1Nc1cnc(Cl)cn1)C1CCOCC1 [intermediate C4]
measurementUnit: ng/g
concentration at 1 h: 165

----------
assay: Plasma PK and tissue distribution after oral dosing of INTERMEDIATE C4 (3 mg/kg)
Format: in vivo
conditionSet: male, Wistar Han, rat, lymph node / plasma, po, 3 mg/kg, PO 3 mg/kg INTERMEDIATE C4, male Wistar Han rat, 1 hr; read-out: Lymph node to plasma ratio Mean
assayReadout: Kp at 1 h

molecule: CC(C)CN(c1ccc([C@H](C)CC(=O)O)cc1Nc1cnc(Cl)cn1)C1CCOCC1 [intermediate C4]
assayReadout: Kp at 1 h
measurement: 0.293

----------
assay: Plasma PK and tissue distribution after oral dosing of prodrug EXAMPLE 7 (5 mg/kg)
Type: in vivo
conditionSet: male, Wistar Han, rat, lymph node/plasma, po, 5 mg/kg, PO 5 mg/kg EXAMPLE 7 (prodrug), 4 hr, analyte as labelled, read-out: Lymph node to plasma ratio individual

molecule: CC(C)CN(c1ccc([C@H](C)CC(=O)O)cc1Nc1cnc(Cl)cn1)C1CCOCC1 [intermediate C4]
Kp at 4 h: 1.16

----------
assay: Plasma PK and tissue distribution after oral dosing of prodrug EXAMPLE 7 (5 mg/kg)
Assay type: in vivo
conditionSet: male, Wistar Han, rat, lymph node, po, 5 mg/kg, PO 5 mg/kg EXAMPLE 7 (prodrug), 4 hr, analyte as labelled, read-out: lymph node Concentration individual
assayReadout: concentration at 4 h (ng/g)

molecule: CC(C)CN(c1ccc([C@H](C)CC(=O)O)cc1Nc1cnc(Cl)cn1)C1CCOCC1 [intermediate C4]
measurement: 84.4

----------
assay: Plasma PK and tissue distribution after oral dosing of INTERMEDIATE C4 (3 mg/kg)
Assay type: in vivo
conditionSet: liver, PO 3 mg/kg INTERMEDIATE C4, male Wistar Han rat; read-out: AUClast (liver)

molecule: CC(C)CN(c1ccc([C@H](C)CC(=O)O)cc1Nc1cnc(Cl)cn1)C1CCOCC1 [intermediate C4]
AUC(0-t) / µg·h/mL: 10.2

----------
assay: Plasma PK and tissue distribution after oral dosing of INTERMEDIATE C4 (3 mg/kg)
Type: in vivo
conditionSet: male, Wistar Han, rat, spleen, po, 3 mg/kg, PO 3 mg/kg INTERMEDIATE C4, male Wistar Han rat, 4 hr; read-out: spleen Concentration individual

compound: CC(C)CN(c1ccc([C@H](C)CC(=O)O)cc1Nc1cnc(Cl)cn1)C1CCOCC1 [intermediate C4]
concentration at 4 h: 19.3 ng/g

----------
assay: Plasma PK and tissue distribution after oral dosing of INTERMEDIATE C4 (3 mg/kg)
Type: in vivo
conditionSet: male, Wistar Han, rat, spleen, po, 3 mg/kg, PO 3 mg/kg INTERMEDIATE C4, male Wistar Han rat, 1 hr; read-out: spleen Concentration individual
Procedure: Tissue Distribution of drug intermediate C4 from oral dosing of C4 and of intermediate C4 from oral dosing of example 7 in rats • Wistar Han rat, 185-197 g, male, N=8, purchased from Beijing Vital River Co. LTD. Qualification No.: SCXK(J) 2016-0011 11400700240027. Fasted overnight and fed 4 hr post dose. PO: 3 mg/kg (10 mL/kg) via oral gavage(N=8). Sampling at 1, 4, 8 and 24 hr , 4 time points, terminal bleeding for plasma, liver, lymph nodes and spleen collected at each time point.
assayReadout: concentration at 1 h (ng/g)

compound: CC(C)CN(c1ccc([C@H](C)CC(=O)O)cc1Nc1cnc(Cl)cn1)C1CCOCC1 [intermediate C4]
measurement: 65.3

----------
assay: Plasma PK and tissue distribution after oral dosing of INTERMEDIATE C4 (3 mg/kg)
Format: in vivo
conditionSet: male, Wistar Han, rat, lymph node, po, 3 mg/kg, PO 3 mg/kg INTERMEDIATE C4, male Wistar Han rat, 8 hr; read-out: lymph node Concentration individual
Method: Tissue Distribution of drug intermediate C4 from oral dosing of C4 and of intermediate C4 from oral dosing of example 7 in rats • Wistar Han rat, 185-197 g, male, N=8, purchased from Beijing Vital River Co. LTD. Qualification No.: SCXK(J) 2016-0011 11400700240027. Fasted overnight and fed 4 hr post dose. PO: 3 mg/kg (10 mL/kg) via oral gavage(N=8). Sampling at 1, 4, 8 and 24 hr , 4 time points, terminal bleeding for plasma, liver, lymph nodes and spleen collected at each time point.
assayReadout: concentration at 8 h

molecule: CC(C)CN(c1ccc([C@H](C)CC(=O)O)cc1Nc1cnc(Cl)cn1)C1CCOCC1 [intermediate C4]
measurement: 11.9 ng/g

----------
assay: Plasma PK and tissue distribution after oral dosing of prodrug EXAMPLE 7 (5 mg/kg)
Assay type: in vivo
conditionSet: lymph node, PO 5 mg/kg EXAMPLE 7 (prodrug), male Wistar Han rat; analyte as labelled; read-out: AUClast (lymph node)

molecule: CC(C)CN(c1ccc([C@H](C)CC(=O)O)cc1Nc1cnc(Cl)cn1)C1CCOCC1 [intermediate C4]
measurementUnit: ng·h/mL
AUC(0-t): 1890

----------
assay: Plasma PK and tissue distribution after oral dosing of INTERMEDIATE C4 (3 mg/kg)
Format: in vivo
conditionSet: male, Wistar Han, rat, plasma, po, 3 mg/kg, PO 3 mg/kg INTERMEDIATE C4, male Wistar Han rat, 4 hr; read-out: plasma Concentration individual

molecule: CC(C)CN(c1ccc([C@H](C)CC(=O)O)cc1Nc1cnc(Cl)cn1)C1CCOCC1 [intermediate C4]
concentration at 4 h, ng/mL: 68.2

----------
assay: Plasma PK and tissue distribution after oral dosing of prodrug EXAMPLE 7 (5 mg/kg)
Type: in vivo
conditionSet: male, Wistar Han, rat, lymph node/plasma, po, 5 mg/kg, PO 5 mg/kg EXAMPLE 7 (prodrug), 1 hr, analyte as labelled, read-out: Lymph node to plasma ratio Mean

compound: CC(C)CN(c1ccc([C@H](C)CC(=O)O)cc1Nc1cnc(Cl)cn1)C1CCOCC1 [intermediate C4]
Kp at 1 h: 3.86

----------
assay: Plasma PK and tissue distribution after oral dosing of prodrug EXAMPLE 7 (5 mg/kg)
Type: in vivo
conditionSet: male, Wistar Han, rat, lymph node/plasma, po, 5 mg/kg, PO 5 mg/kg EXAMPLE 7 (prodrug), 8 hr, analyte as labelled, read-out: Lymph node to plasma ratio Mean
assayReadout: Kp at 8 h

compound: CC(C)CN(c1ccc([C@H](C)CC(=O)O)cc1Nc1cnc(Cl)cn1)C1CCOCC1 [intermediate C4]
measurement: 0.994

----------
assay: Plasma PK and tissue distribution after oral dosing of INTERMEDIATE C4 (3 mg/kg)
Format: in vivo
conditionSet: male, Wistar Han, rat, liver, po, 3 mg/kg, PO 3 mg/kg INTERMEDIATE C4, male Wistar Han rat, 8 hr; read-out: liver Concentration individual

compound: CC(C)CN(c1ccc([C@H](C)CC(=O)O)cc1Nc1cnc(Cl)cn1)C1CCOCC1 [intermediate C4]
concentration at 8 h / ng/g: 540

----------
assay: Plasma PK and tissue distribution after oral dosing of INTERMEDIATE C4 (3 mg/kg)
Type: in vivo
conditionSet: male, Wistar Han, rat, liver, po, 3 mg/kg, PO 3 mg/kg INTERMEDIATE C4, male Wistar Han rat, 8 hr; read-out: liver Concentration Mean

compound: CC(C)CN(c1ccc([C@H](C)CC(=O)O)cc1Nc1cnc(Cl)cn1)C1CCOCC1 [intermediate C4]
measurementUnit: ng/g
concentration at 8 h: 420

----------
assay: Plasma PK and tissue distribution after oral dosing of INTERMEDIATE C4 (3 mg/kg)
Type: in vivo
conditionSet: male, Wistar Han, rat, liver / plasma, po, 3 mg/kg, PO 3 mg/kg INTERMEDIATE C4, male Wistar Han rat, 4 hr; read-out: Liver to plasma ratio Mean

compound: CC(C)CN(c1ccc([C@H](C)CC(=O)O)cc1Nc1cnc(Cl)cn1)C1CCOCC1 [intermediate C4]
Kp at 4 h: 13.7
